Tested on: NCI-H358 cells
experiment description: NCI-H358 CTG proliferation assay (120 h) (NSCLC, G12C)
Format: cell-based
experimental conditions: Homo sapiens
result type: pIC50
Numbers only, as −log10 of the molar value.

Study these solved cases before continuing.
chemical string	result type	observed
CO[C@@H]1C[C@@H]([C@H](C)Oc2nc(-c3onc4c3CCC[C@@]43CCCc4sc(N)c(C#N)c43)nc3c2n(C)c(=O)n3[C@@]23COC[C@@H]2C3)N(C)C1	pIC50	8.22
C[C@H](Oc1nc(-c2onc3c2CCC[C@@]32CCCc3sc(N)c(C#N)c32)nc2c1[nH]c(=O)n2[C@@H]1CCOC1)[C@@H]1CCCN1C	pIC50	8.05
COCCn1c(=O)n([C@@H]2CCOC2)c2nc(-c3onc4c3CCC[C@@]43CCCc4sc(N)c(C#N)c43)nc(O[C@@H](C)[C@@H]3CCCN3C)c21	pIC50	8.05

The following compounds each have a reported value; give each one's pIC50.
1. C[C@H](Oc1nc(-c2noc3c2CCC[C@@]32CCCc3sc(N)c(C#N)c32)nc2c1cnn2[C@@H]1CCOC1)[C@@H]1CCCN1C
2. Cc1cn([C@@H]2CCOC2)c2nc(-c3onc4c3CCC[C@@]43CCCc4sc(N)c(C#N)c43)nc(O[C@@H](C)[C@@H]3CCCN3C)c12
3. C[C@H](Oc1nc(-c2onc3c2CCC[C@@]32CCCc3sc(N)c(C#N)c32)nc2c1n(C)c(=O)n2[C@@H]1CCOC1)[C@@H]1[C@H](F)CCN1C
4. C[C@H](Oc1nc(-c2onc3c2CCC[C@@]32CCCc3sc(N)c(C#N)c32)nc2c1n(C)c(=O)n2[C@@H]1CCOC1)[C@@H]1C[C@H](F)CN1C

[7.46, 6.53, 6.97, 7.41]

Source: patent US20250019385A1
